Tested on: HCC1937
test.details: normalised viability (% of control), CellTiter-Blue; higher = more viable cells (about 100 = DMSO control)
recorded.conditions: 1000 nM; incubation time: 72 h
Quick reference: normalised viability of the listed items.
Return type: number; implicit unit %.

molecule | unit.abbrev | normalised viability
C[C@]12O[C@H](C[C@]1(O)CO)n1c3ccccc3c3c4c(c5c6ccccc6n2c5c31)CNC4=O | % | 31.3
Nc1ccccc1NC(=O)c1ccc(CNc2nccc(-c3cccnc3)n2)cc1 | % | 70.4
O=S(=O)(c1cccc2cnccc12)N1CCCNCC1 | % | 105
COc1cc(CCc2cc(NC(=O)c3ccc(N4CC(C)NC(C)C4)cc3)n[nH]2)cc(OC)c1 (stereo not drawn) | % | 115
Cc1ccc(Nc2nccc(N(C)c3ccc4c(C)n(C)nc4c3)n2)cc1S(N)(=O)=O | % | 92
O=C(Nc1c[nH]nc1-c1nc2ccc(CN3CCOCC3)cc2[nH]1)NC1CC1 | % | 43.4

Reported normalised viability of Cc1c(CN2CCN(C(=O)[C@H](C)O)CC2)sc2c(N3CCOCC3)nc(-c3cnc(N)nc3)nc12 : 39.7

Reported normalised viability of CO[C@@H](C(=O)N1Cc2[nH]nc(NC(=O)c3ccc(N4CCN(C)CC4)cc3)c2C1)c1ccccc1 : 41.7

---

Test system: CAL-51
test.details: normalised response (% of control), CellTiter-Glo; higher = more viable cells (100 = DMSO, 0 = benzethonium chloride kill control)
recorded.conditions: incubation time: 72 h
Kindly return 1 if reported normalised response is no lower than 90%; return -1 if it is lower.

Study these solved cases before continuing.
compound | qualitative.label
Cc1ccc(Nc2nccc(N(C)c3ccc4c(C)n(C)nc4c3)n2)cc1S(N)(=O)=O [Pazopanib] (1 nM) | 1
COc1nc(N)nc2c1ncn2[C@@H]1O[C@H](CO)[C@@H](O)[C@@H]1O [Nelarabine] (10 nM) | -1
CNC(=O)c1cc(Oc2ccc(NC(=O)Nc3ccc(Cl)c(C(F)(F)F)c3)cc2)ccn1 [Sorafenib] (100 nM) | -1
Cc1ccc(Nc2nccc(N(C)c3ccc4c(C)n(C)nc4c3)n2)cc1S(N)(=O)=O [Pazopanib] (1000 nM) | 1
Cc1c(CN2CCN(C(=O)[C@H](C)O)CC2)sc2c(N3CCOCC3)nc(-c3cnc(N)nc3)nc12 [GDC-0980] (1 nM) | 1
CC[C@@]1(O)C(=O)OCc2c1cc1n(c2=O)Cc2cc3c(CN(C)C)c(O)ccc3nc2-1 [Topotecan] (1000 nM) | -1

### Prompt Threshold query (normalised response >= 90%) on CS(=O)(=O)N1CCN(Cc2cc3nc(-c4cccc5[nH]ncc45)nc(N4CCOCC4)c3s2)CC1 [Pictilisib] (1 nM)
### Response 1

---

Quick reference: normalised viability of the listed items.
System: BT-474
test.details: normalised viability (% of control), CellTiter-Blue; higher = more viable cells (about 100 = DMSO control)
recorded.conditions: 100 nM; incubation time: 72 h
Return type: number; implicit unit %.

Before answering, review these 2 worked examples.
molecule | unit.abbrev | measured.result
Nc1ccccc1NC(=O)c1ccc(CNc2nccc(-c3cccnc3)n2)cc1 [Mocetinostat] | % | 95.1
Cc1ccc(Nc2nccc(N(C)c3ccc4c(C)n(C)nc4c3)n2)cc1S(N)(=O)=O [Pazopanib] | % | 99.7

Reported normalised viability of CS(=O)(=O)N1CCN(Cc2cc3nc(-c4cccc5[nH]ncc45)nc(N4CCOCC4)c3s2)CC1 [GDC-0941] : 102

Reported normalised viability of Cc1c(CN2CCN(C(=O)[C@H](C)O)CC2)sc2c(N3CCOCC3)nc(-c3cnc(N)nc3)nc12 [GDC-0980] : 90.2

---

Test system: MFM-223
test.details: normalised response (% of control), CellTiter-Glo; higher = more viable cells (100 = DMSO, 0 = benzethonium chloride kill control)
recorded.conditions: incubation time: 72 h
property.label: normalised response (%)
Return type: number; implicit unit %.

Before answering, review these 2 worked examples.
compound | unit.abbrev | normalised response
CCN(CC)CCNC(=O)c1c(C)[nH]c(/C=C2\C(=O)Nc3ccc(F)cc32)c1C [Sunitinib] (1000 nM) | % | 81.8
Cc1cccc(-c2nn3c(c2-c2ccnc4ccc(C(N)=O)cc24)CCC3)n1 [Galunisertib] (1000 nM) | % | 108

Reported normalised response of CC[C@@]1(O)C(=O)OCc2c1cc1n(c2=O)Cc2cc3c(CN(C)C)c(O)ccc3nc2-1 [Topotecan] (10000 nM) : 61.7

Reported normalised response of C[C@]12O[C@H](C[C@]1(O)CO)n1c3ccccc3c3c4c(c5c6ccccc6n2c5c31)CNC4=O [Lestaurtinib] (1000 nM) : 46.4

Reported normalised response of O=C(CCBr)N1CCN(C(=O)CCBr)CC1 [Pipobroman] (10000 nM) : 103

Reported normalised response of C[C@]12C=CC(=O)C=C1CC[C@@H]1[C@@H]2[C@@H](O)C[C@@]2(C)[C@H]1CC[C@]2(O)C(=O)CO [Prednisolone] (10000 nM) : 101

Reported normalised response of O=C(NC[C@H](O)CO)c1ccncc1Nc1ccc(I)cc1F [Pimasertib] (10000 nM) : 63

---

Test system: MDA-MB-453
test.details: normalised viability (% of control), CellTiter-Blue; higher = more viable cells (about 100 = DMSO control)
recorded.conditions: incubation time: 72 h
property.label: normalised viability (%)
Return type: number; implicit unit %.

Before answering, review these 5 worked examples.
molecule | normalised viability / %
C[C@]12O[C@H](C[C@]1(O)CO)n1c3ccccc3c3c4c(c5c6ccccc6n2c5c31)CNC4=O [Lestaurtinib] (100 nM) | 75.1
CO[C@@H](C(=O)N1Cc2[nH]nc(NC(=O)c3ccc(N4CCN(C)CC4)cc3)c2C1)c1ccccc1 [Danusertib] (1000 nM) | 41.7
COc1ccc(-c2cc3c(C)nc(N)nc3n([C@H]3CC[C@H](OCCO)CC3)c2=O)cn1 (1000 nM) | 7.65
CC[C@@]1(O)C(=O)OCc2c1cc1n(c2=O)Cc2cc3c(CN(C)C)c(O)ccc3nc2-1 [Topotecan] (100 nM) | 90.4
O=C(Nc1c[nH]nc1-c1nc2ccc(CN3CCOCC3)cc2[nH]1)NC1CC1 [AT9283] (1000 nM) | 42

Reported normalised viability of O=C1c2c(O)ccc(O)c2C(=O)c2c(NCCNCCO)ccc(NCCNCCO)c21 [Mitoxantrone] (100 nM) : 71.3

Reported normalised viability of C[C@]12C=CC(=O)C=C1CC[C@@H]1[C@@H]2[C@@H](O)C[C@@]2(C)[C@H]1CC[C@]2(O)C(=O)CO [Prednisolone] (1000 nM) : 76.9

Reported normalised viability of CCC/C=C/C=C/C(=O)O[C@H]1/C(=C/C(=O)OC)C[C@H]2C[C@H]([C@@H](C)O)OC(=O)C[C@H](O)C[C@@H]3C[C@H](OC(C)=O)C(C)(C)[C@](O)(C[C@@H]4C/C(=C/C(=O)OC)C[C@H](/C=C/C(C)(C)[C@]1(O)O2)O4)O3 [Bryostatin 1] (10 nM) : 92.2

---

Test system: CAL-148
test.details: normalised response (% of control), CellTiter-Glo; higher = more viable cells (100 = DMSO, 0 = benzethonium chloride kill control)
recorded.conditions: incubation time: 72 h
Quick reference: normalised response of the listed items.
Return type: number; implicit unit %.

compound | normalised response / %
C[C@]12C=CC(=O)C=C1CC[C@@H]1[C@@H]2[C@@H](O)C[C@@]2(C)[C@H]1CC[C@]2(O)C(=O)CO [Prednisolone] (1000 nM) | 102
CCC/C=C/C=C/C(=O)O[C@H]1/C(=C/C(=O)OC)C[C@H]2C[C@H]([C@@H](C)O)OC(=O)C[C@H](O)C[C@@H]3C[C@H](OC(C)=O)C(C)(C)[C@](O)(C[C@@H]4C/C(=C/C(=O)OC)C[C@H](/C=C/C(C)(C)[C@]1(O)O2)O4)O3 [Bryostatin 1] (0.1 nM) | 115
Nc1ccccc1NC(=O)c1ccc(CNc2nccc(-c3cccnc3)n2)cc1 [Mocetinostat] (1000 nM) | 77
COc1nc(N)nc2c1ncn2[C@@H]1O[C@H](CO)[C@@H](O)[C@@H]1O [Nelarabine] (10 nM) | 81.3

Reported normalised response of C[C@]12O[C@H](C[C@]1(O)CO)n1c3ccccc3c3c4c(c5c6ccccc6n2c5c31)CNC4=O [Lestaurtinib] (100 nM) : 83.9

---

Quick reference: normalised viability of the listed items.
Tested on: MFM-223
test.details: normalised viability (% of control), CellTiter-Blue; higher = more viable cells (about 100 = DMSO control)
recorded.conditions: 100 nM; incubation time: 72 h
Field: value (include unit after the number)

Before answering, review these 2 worked examples.
test.smiles | test.system | normalised viability
O=S(=O)(c1cccc2cnccc12)N1CCCNCC1 | MFM-223 | 93.6%
O=C(NC[C@H](O)CO)c1ccncc1Nc1ccc(I)cc1F | MFM-223 | 85.4%

Reported normalised viability of C[C@]12C=CC(=O)C=C1CC[C@@H]1[C@@H]2[C@@H](O)C[C@@]2(C)[C@H]1CC[C@]2(O)C(=O)CO : 97%

Reported normalised viability of O=C(Nc1c[nH]nc1-c1nc2ccc(CN3CCOCC3)cc2[nH]1)NC1CC1 : 64%
